Data origin: ChEMBL document CHEMBL1122609

I'd appreciate it if you could supply Ratio values for the items below.
- ASSAY METHOD TEXT: Ratio of half life (protection) to the control was reported at a concentration 0 M
- Assay type: ADME

C=CCNC1(c2ccccc2)CCCCC1    1

Batch request: Ratio for each of the following compounds.
1. c1ccc(C2(N3CCCCC3)CCCCC2)cc1 [PHENCYCLIDINE]
2. CCNC1(c2ccccc2)CCCCC1 [ETICYCLIDINE]

stdout:
1: 1; 2: 1

The following compounds each have a reported value; give each one's Ratio.
1. C=CCN(C)C1(c2ccccc2)CCCCC1
2. C=CCN(CC=C)C1(c2ccccc2)CCCCC1
3. C=CCN(CC)C1(c2ccccc2)CCCCC1

stdout:
1. 1
2. 1
3. 1

---

- ASSAY METHOD TEXT: Ratio of half life (protection) to the control was reported at a concentration 4*10e-7 M
- Format: ADME
ASSAY READOUT: Ratio
One number for each entry.

Please review the following examples before continuing.
C=CCN(CC=C)C1(c2ccccc2)CCCCC1    1.18
c1ccc(C2(N3CCCCC3)CCCCC2)cc1    1.26
C=CCN(CC)C1(c2ccccc2)CCCCC1    1.33

Now take the following compound into account.
stdin: Item `CCNC1(c2ccccc2)CCCCC1` : provide Ratio
stdout: 0.95

---

- ASSAY METHOD TEXT: Ratio of half life (protection) to the control was reported at a concentration 8*10e-6 M
- Type: ADME
Exercise: state measured Ratio for each of the compounds provided.
Numbers only.

Here is how some compounds turned out for Ratio.
C=CCN(CC)C1(c2ccccc2)CCCCC1    1.71
c1ccc(C2(N3CCCCC3)CCCCC2)cc1    1.73
CCNC1(c2ccccc2)CCCCC1    2.52
C=CCN(C)C1(c2ccccc2)CCCCC1    2.21

Now for the compound whose Ratio we want.
stdin: Find the measured Ratio of `C=CCNC1(c2ccccc2)CCCCC1` and report it.
stdout: 2.35

---

- Test system: Mus musculus
- ASSAY METHOD TEXT: Percent failing the test was reported at dose 9.60 umol/kg (experiment 2)
- Format: functional
ASSAY READOUT: Activity
Param answer (str): number followed by unit.

Please give Activity, item by item, for the list that follows.
1. c1ccc(C2(N3CCCCC3)CCCCC2)cc1
2. C=CCN(C)C1(c2ccccc2)CCCCC1
3. C=CCN(CC=C)C1(c2ccccc2)CCCCC1
4. C=CCN(CC)C1(c2ccccc2)CCCCC1

stdout:
45.8%
100%
100%
83%

---

Answer each item with its documented Ratio.
- ASSAY METHOD TEXT: Ratio of half life (protection) to the control was reported at a concentration 4*10e-6 M
- Assay type: ADME
Give bare numbers.

Study these solved cases before continuing.
CCNC1(c2ccccc2)CCCCC1    2.6
C=CCNC1(c2ccccc2)CCCCC1    2.61
C=CCN(C)C1(c2ccccc2)CCCCC1    2.15
C=CCN(CC=C)C1(c2ccccc2)CCCCC1    5.89
C=CCN(CC)C1(c2ccccc2)CCCCC1    5.11

Turning now to a further record.
stdin: Entry `c1ccc(C2(N3CCCCC3)CCCCC2)cc1` needs its Ratio filled in; supply it.
stdout: 4.48

---

- STUDY SYSTEM: Muscarinic acetylcholine receptor
- ASSAY METHOD TEXT: Dissociation constant towards Muscarinic acetylcholine receptor was determined by using [3H]4NMPB as radioligand
- Assay type: protein assay
Mark satisfied only for Kd values smaller than 20 µM; exact matches and larger values are not satisfied.

C=CCN(CC=C)C1(c2ccccc2)CCCCC1    not satisfied

stdin: Hi there! Is Kd for `C=CCNC1(c2ccccc2)CCCCC1` below 20 µM, do you know?
stdout: not satisfied

stdin: Please determine if `C=CCN(CC)C1(c2ccccc2)CCCCC1` is below 20 µM in terms of Kd.
stdout: satisfied

stdin: is_below(Kd, 20 µM) for `C=CCN(C)C1(c2ccccc2)CCCCC1` ?
stdout: satisfied

stdin: Is Kd strictly under 20 µM for the entry `c1ccc(C2(N3CCCCC3)CCCCC2)cc1` ?
stdout: satisfied
